Test system: Oryza sativa
Experiment: Pre-emergence phytotoxicity against Oryza sativa cv. Koshihikari (rice) assessed as phytotoxic crop injury visual ratings at 1.25 kg ai/ha measured after 14 days post treatment under flooded conditions
Type: organism-based
Conditions: in vivo, other, 336 h
endpointLabel: Phytotoxicity (%)
Report the value in % with no unit label.

Determine its reported Phytotoxicity: "CCC(CC)=C1OC(=O)N(c2ccc(Cl)cc2)C1=O"
0

Determine its reported Phytotoxicity: "CCCC/C(C)=C1/OC(=O)N(c2ccc(Cl)cc2)C1=O"
10

Determine its reported Phytotoxicity: "CC/C(C)=C1/OC(=O)N(c2ccc(F)cc2)C1=O"
0

Determine its reported Phytotoxicity: "CC/C(C)=C1/OC(=O)N(c2ccc(Cl)cc2)C1=O"
20

Determine its reported Phytotoxicity: "O=C1OC(=C2CCCCC2)C(=O)N1c1ccc(Cl)cc1"
0

Determine its reported Phytotoxicity: "CCCCCC/C(C)=C1/OC(=O)N(c2ccc(Cl)cc2)C1=O"
0

Determine its reported Phytotoxicity: "CC(C)=C1OC(=O)N(c2ccc(F)cc2)C1=O"
0

Determine its reported Phytotoxicity: "CC(C)=C1OC(=O)N(c2ccc(Cl)cc2)C1=O"
10

====

Exercise: state measured Phytotoxicity for each of the compounds provided.
Test system: Lindernia procumbens
Test: Pre-emergence herbicidal activity against Lindernia procumbens assessed as phytotoxic weed control visual ratings at 2.5 kg ai/ha measured after 14 days post treatment under flooded conditions
Assay type: functional
Report the value in % with no unit label.

Please report Phytotoxicity with Lindernia procumbens for item C=C(C)C1(C)OC(=O)N(c2cc(Cl)cc(Cl)c2)C1=O (centres undefined) .
60

Please report Phytotoxicity with Lindernia procumbens for item "CC(C)=C1OC(=O)N(c2cc(Cl)cc(Cl)c2)C1=O" .
50

Please report Phytotoxicity with Lindernia procumbens for item "CC(C)=C1OC(=O)N(c2ccccc2Cl)C1=O" .
0

Please report Phytotoxicity with Lindernia procumbens for item "CC(C)=C1OC(=O)N(c2c(Cl)cc(Cl)cc2Cl)C1=O" .
100

Please report Phytotoxicity with Lindernia procumbens for item "CC(C)=C1OC(=O)N(c2ccc(Cl)cc2Cl)C1=O" .
100

Please report Phytotoxicity with Lindernia procumbens for item "CC(C)=C1OC(=O)N(c2ccc(Cl)cc2)C1=O" .
100

Please report Phytotoxicity with Lindernia procumbens for item "CC(C)=C1OC(=O)N(c2ccc(Cl)c(Cl)c2)C1=O" .
100

Please report Phytotoxicity with Lindernia procumbens for item "CC(C)=C1OC(=O)N(c2cccc(Cl)c2)C1=O" .
30

Please report Phytotoxicity with Lindernia procumbens for item C=CC1(C)OC(=O)N(c2cc(Cl)cc(Cl)c2)C1=O (centres undefined) .
50

====

System: Schoenoplectiella juncoides
Test: Pre-emergence herbicidal activity against Schoenoplectiella juncoides assessed as phytotoxic weed control visual ratings at 2.5 kg ai/ha measured after 14 days post treatment under flooded conditions
Type: functional
Give yes (1) when the value for Phytotoxicity is at least 30%. Give no (0) when it is less.

Could you please find out whether "CC(C)=C1OC(=O)N(c2ccc(Cl)c(Cl)c2)C1=O" has Phytotoxicity that meets 30% or exceeds it?
yes (1)

Could you please find out whether "CC(C)=C1OC(=O)N(c2ccc(Cl)cc2Cl)C1=O" has Phytotoxicity that meets 30% or exceeds it?
yes (1)

Could you please find out whether "CC(C)=C1OC(=O)N(c2c(Cl)cc(Cl)cc2Cl)C1=O" has Phytotoxicity that meets 30% or exceeds it?
no (0)

Could you please find out whether C=C(C)C1(C)OC(=O)N(c2cc(Cl)cc(Cl)c2)C1=O (stereo unspecified) has Phytotoxicity that meets 30% or exceeds it?
no (0)

Could you please find out whether "CC(C)=C1OC(=O)N(c2ccccc2Cl)C1=O" has Phytotoxicity that meets 30% or exceeds it?
no (0)

Data provenance is ChEMBL document CHEMBL3046126.
